RECORDED ENDPOINT: melting point

INSERT INTO assay_data (molecular_string, measurement) VALUES
  ('CSc1nccn1CC(=O)O', '176 °C'),
  ('O=C(c1cccs1)c1cnn2c(-c3cccc(N4CCCC4=O)c3)ccnc12', '> 200 °C'),
  ('CN=C(N)Nc1nc(-c2cccc(C(=O)NCCN)c2)cs1', '214 to 216 °C'),
  ('O=C(c1ccc(Nc2ccnc3cc(Cl)ccc23)cc1)N1CCNCC1', '248 to 250 °C'),
  ('CC(C)(C)NS(=O)(=O)c1cc([N+](=O)[O-])ccc1Cl', '168 to 171 °C'),
  ('CC(=O)c1cccc(Oc2ncccc2C(=O)NCc2ccc([C@H](C)O)cc2)c1', '102 to 104 °C');
